- Test system: Thromboxane A2 Synthetase
- PROCEDURE_DETAILS: Determination of thromboxane A2 synthetase inhibitory activity (lysed horse platelets, [1-14C]-arachidonic acid conversion, TLC/scintillation counting)
- Type: biochemical
- CONDITION_DESCRIPTION: concentration of active compound required to reduce the enzyme activity by 50%; horse platelet lysate, 3 min at 37°C
Counter-ions that a name gives are not always drawn.
I'd appreciate it if you could supply log10 of ED50 values for the items below.
Transform log10 | Measure ED50 | Unit mg/L

Can you share its log10 of ED50? I mean this compound: "CCOC(=O)/C=C/c1ccc(Cn2ccnc2)c(Cl)c1"
-0.30

Lookup O=C(O)c1ccc(C=CCn2ccnc2)cc1Cl [Example 10, hydrochloride hemihydrate]
-0.46

How about O=C(O)CCc1ccc(Cn2ccnc2)c(Cl)c1 [Example 4, hydrochloride] ?
-1.10

Same question for "Cl.O=C(O)c1ccc(Cn2ccnc2)c(Cl)c1" please.
0.82

Thanks! And "Cl.O.O=C(O)C=Cc1ccc(Cn2ccnc2)c(Br)c1" ?
-1.82

And then "Cl.O=C(O)/C=C/c1ccc(Cn2ccnc2)c(Cl)c1" , what is it?
-1.30

Value source: patent EP0106060A2
